# tested-target: PPARG/RXRA LBD heterodimer (Homo sapiens)
# Construct: His-TEV-Q203-Y477; Uniprot ID P37231-2; made in house; host or cells: E. coli
# experiment: PPARγ-MED1 blockade assay (TR-FRET, biotinylated MED1 LxxLL peptide)
# Assay type: biochemical
# condition-description: WT PPARG LBD/WT RXRA LBD, 80 nM Rosiglitazone, 3 hours
recorded-endpoint: EC50

substance-smiles: COCc1c(F)cc2[nH]c(-c3cc(C#N)ccc3Cl)cc(=O)c2c1F
EC50: 100 to 1000 nM
//
substance-smiles: N#Cc1ccc(Br)c(-c2cc(=O)c3cc(F)c(F)cc3[nH]2)c1
EC50: 100 to 1000 nM
//
substance-smiles: N#Cc1ccc(Cl)c(-c2cc(=O)c3c(F)c(-c4ccc(C(=O)O)cc4)c(F)cc3[nH]2)c1
EC50: 1000 to 10000 nM
//
substance-smiles: N#Cc1ccc(Cl)c(-c2cc(=O)c3c(F)c(Br)c(F)cc3[nH]2)c1
EC50: 100 to 1000 nM

Determine from records and report EC50 for "Cc1cnc(-c2c(F)cc3[nH]c(-c4cc(C#N)ccc4Cl)cc(=O)c3c2F)cn1" 100 to 1000 nM

Determine from records and report EC50 for "CNC(=O)c1c(F)cc2[nH]c(-c3cc(C#N)ccc3Cl)cc(=O)c2c1F" 1000 to 10000 nM

* * *

# tested-target: PPARG/RXRA LBD heterodimer (Homo sapiens)
# Construct: His-TEV-Q203-Y477; Uniprot ID P37231-2; made in house; host or cells: E. coli
# experiment: PPARγ-MED1 blockade assay (TR-FRET, biotinylated MED1 LxxLL peptide)
# Format: biochemical
# condition-description: WT PPARG LBD/WT RXRA LBD, 80 nM Rosiglitazone, 3 hours
pEC50: −log10 of the molar value.
recorded-endpoint: pEC50

compound: N#Cc1ccc(Cl)c(-c2[nH]c3cc(F)cc(F)c3c(=O)c2Cl)c1 [Example 119]
measurement: < 5.00

Determine from records and report pEC50 for N#Cc1ccc(Cl)c(-c2cc(=O)c3c(F)c(C(O)CO)c(F)cc3[nH]2)c1 (centres unmarked) [Example 90] < 5.00

Determine from records and report pEC50 for Cc1c(F)cc2[nH]c(-c3cc(C#N)ccc3Cl)cc(=O)c2c1F [Example 15] 7.00 to 8.00

Determine from records and report pEC50 for N#Cc1ccc(Cl)c(-c2cc(=O)c3c(F)c(-c4ccnc(CO)c4)c(F)cc3[nH]2)c1 [Example 71] 5.00 to 6.00

* * *

# tested-target: PPARG/RXRA LBD heterodimer (Homo sapiens, UniProt P37231)
# Construct: His-TEV-Q203-Y477; Uniprot ID P37231-2; made in house; host or cells: E. coli
# Sequence (P37231 231-505): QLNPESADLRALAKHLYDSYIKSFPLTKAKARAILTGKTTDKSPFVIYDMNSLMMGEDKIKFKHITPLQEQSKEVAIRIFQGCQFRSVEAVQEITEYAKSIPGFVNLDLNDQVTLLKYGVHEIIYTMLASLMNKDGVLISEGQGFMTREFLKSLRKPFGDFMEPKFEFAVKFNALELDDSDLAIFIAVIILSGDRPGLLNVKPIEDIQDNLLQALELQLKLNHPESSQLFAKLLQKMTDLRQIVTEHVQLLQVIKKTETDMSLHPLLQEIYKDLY
# Sequence (P19793 228-462 partner limits assumed): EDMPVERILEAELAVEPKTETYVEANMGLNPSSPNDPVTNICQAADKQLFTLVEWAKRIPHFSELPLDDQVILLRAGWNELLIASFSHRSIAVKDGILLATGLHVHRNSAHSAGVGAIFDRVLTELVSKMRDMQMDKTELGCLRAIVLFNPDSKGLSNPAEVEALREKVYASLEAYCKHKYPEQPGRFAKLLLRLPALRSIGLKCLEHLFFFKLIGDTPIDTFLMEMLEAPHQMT
# experiment: PPARγ-MED1 blockade assay (TR-FRET, biotinylated MED1 LxxLL peptide)
# Type: biochemical
# condition-description: WT PPARG LBD/WT RXRA LBD, 80 nM Rosiglitazone, 3 hours
Reported EC50 values for a set of molecules

Field: example entries. Status: answers known.
substance-smiles: CN1CCN(c2cc3c(=O)cc(-c4cc(C#N)ccc4Cl)[nH]c3cc2Cl)CC1
tested-target: PPARG/RXRA LBD heterodimer (Homo sapiens, UniProt P37231)
EC50: 1000 to 10000 nM

substance-smiles: COc1cc(F)c2c(=O)cc(-c3cc(C#N)ccc3Cl)[nH]c2c1
tested-target: PPARG/RXRA LBD heterodimer (Homo sapiens, UniProt P37231)
EC50: 100 to 1000 nM

Moving on to another molecule below.
Determine from records and report EC50 for "N#Cc1ccc(Cl)c(-c2cc(=O)c3c(F)cc(F)cc3[nH]2)c1" 100 to 1000 nM
